TARGET_OR_TEST_SYSTEM: T1, rat calcitonin receptor (rat, UniProt P32214 25-516)
T1 construct: whole, on cells; membranes of transiently transfected BHK tk'ts 13 cells (Assay VIII); also called rCTR; rat calcitonin (a) receptor
T1 sequence (looked up): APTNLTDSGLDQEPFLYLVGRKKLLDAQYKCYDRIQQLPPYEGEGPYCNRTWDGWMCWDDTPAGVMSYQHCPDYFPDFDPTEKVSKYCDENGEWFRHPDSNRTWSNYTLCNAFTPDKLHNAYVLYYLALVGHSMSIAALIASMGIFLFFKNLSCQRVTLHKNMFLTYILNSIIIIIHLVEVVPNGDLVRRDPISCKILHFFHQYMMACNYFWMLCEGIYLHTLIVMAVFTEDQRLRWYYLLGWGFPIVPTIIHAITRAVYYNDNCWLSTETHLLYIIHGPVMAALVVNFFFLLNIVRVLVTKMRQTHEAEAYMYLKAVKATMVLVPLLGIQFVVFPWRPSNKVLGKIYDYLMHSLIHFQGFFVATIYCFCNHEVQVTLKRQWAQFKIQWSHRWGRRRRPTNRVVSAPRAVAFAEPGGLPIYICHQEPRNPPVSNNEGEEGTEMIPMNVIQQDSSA
ASSAY_OVERVIEW: IC50 on rat calcitonin receptor divided by IC50 on rat amylin receptor (SPA competition)
Numbered stars: 1 amine (or outer) side, 2 acyl side, 3 side chain; on linkers, the order of the positions; unused ones are H or OH. Bridge positions count the residues as written; N and C are the ends. Side chains are listed from the residue outwards. Ends that are not written are not given here. * marks the point of attachment. C20 diacid = O=C(O)CCCCCCCCCCCCCCCCCCC(=O)*; γGlu = O=C(O)[C@H](CCC(=O)[*:2])N[*:1]; AEEA = NCCOCCOCC(=O)O
ENDPOINT_NAME: Ratio rCT/rAmylin binding

Below are worked cases with known answers.
{C20 diacid-γGlu}-GRCNTATCATQRLANFLRHSSPNFGAIPSSTNVGSNTY-NH2 (disulfide 3-8 (inferred), analogue of human amylin extended by Gly at the N-terminus; also called compound 46) [N^-1-[(4S)-4-carboxy-4-(19-carboxynonadecanoylamino)butanoyl]-Gly[Arg1,Arg17,Pro21,Pro27]-h-amylin]: 142
K([AEEA-γGlu-C20 diacid])CNTATCATQRLANFLRHSSPNFGAIPSSTNVGPNTY-NH2 (disulfide 2-7 (inferred), analogue of human amylin; also called compound 50): 81.7
{C20 diacid-γGlu}-KCNTATCATQRLAEFLRHSSPNFGAIPSSTNVGSETY-NH2 (disulfide 2-7 (inferred), analogue of human amylin; the name is printed with N^α1 twice; also called compound 22): 28.5

[1] K([γGlu-γGlu-C20 diacid])CNTATCATQRLADFLRHSSNPFGAPLSSTNVGSDTY-NH2 (disulfide 2-7 (inferred), analogue of human amylin; also called compound 3)
[2] {C20 diacid-γGlu}-KCNTATCATQRLAEFLRHSSPNFGAIPSSTNVGPNTY-NH2 (disulfide 2-7 (inferred), analogue of human amylin; also called compound 32)
[3] K([AEEA-γGlu-C20 diacid])CNTATCATQRLANFLRHSSPNFGAIPSSTNVGSETY-NH2 (disulfide 2-7 (inferred), analogue of human amylin; also called compound 26)
[4] K([γGlu-γGlu-C20 diacid])CNTATCATQRLADFLRHSSPNFGAPLSSTNVGSDTY-NH2 (disulfide 2-7 (inferred), analogue of human amylin; also called compound 1)
Arrange items by their Ratio rCT/rAmylin binding values in increasing order. Please respond with the labels ordered as the question requires. 1, 2, 4, 3
